Test system: SNB-75 CNS
Test: NCI-60 one-dose screen, 48 h (100 = growth as untreated, 0 = no growth, -100 = all killed)
Conditions: 10 µM
The panel holds about 83,000 compounds, 20% with a hit somewhere; the sample as a whole holds those more often.
attribute_measured: growth (%)

                                   compound  reading
0             C=CC(O)CCC (stereo not drawn)     95.7
1  COc1ccc(Oc2c(I)cc(CC(NC(C)=O)C(=O)O)cc2I)cc1 (stereo not drawn)     87.1
2         CC(=O)c1cc2c(cc1F)C(C)(C)CCC2(C)C     84.8

* * *

Tested on: A498 renal
Test: NCI-60 one-dose screen, 48 h (100 = growth as untreated, 0 = no growth, -100 = all killed)
Conditions: 10 µM
About 83,000 compounds went through this panel and 20% of them were active in at least one assay; those are over-represented in the sample as a whole.
attribute_measured: growth (%)

>>> df
                                    molecule  attribute_measured  reading
 0               O=S(=O)(O)c1ccc(O)c2ccccc12              growth      112
 1  CC(O)COc1ccc(-c2ccccc2)cc1 (configuration not stated)              growth     78.7
 2  O=[N+]([O-])c1ccc(N=Nc2ccc(O)c3ccccc23)cc1              growth     71.8
 3  CC(=O)OC1CC2C(C)(C)OC3CC(=O)OCC32C2CCC3(C)C(=CCC3c3ccoc3)C12C (configuration not stated)              growth      110
 4  CC(C)=NNc1ccc([N+](=O)[O-])cc1[N+](=O)[O-]              growth     74.5
 5  CN(C)c1ccc(CNC(C(=O)c2ccccc2)c2ccccc2)cc1 (configuration not stated)              growth     8.44
 6  O=C(Cc1nc2ccc([N+](=O)[O-])cc2nc1CC(=O)c1cccnc1)c1cccnc1              growth     86.9
 7          C=C[Si](OC(C)=O)(OC(C)=O)OC(C)=O              growth     94.2
 8                  COc1cc(OC)c2ccc(=O)oc2c1              growth      101
 9                  Cc1cc(C(C)(C)C)cc(C)c1Br              growth      104
10               O=C(c1ccc(Cl)cc1)c1ccccc1Cl              growth      126
11  O=[N+]([O-])c1ccc(-c2noc(-c3cccs3)n2)cc1              growth     88.6

* * *

Measured growth of individual entries
Tested on: DU-145 prostate
Assay: NCI-60 one-dose screen, 48 h (100 = growth as untreated, 0 = no growth, -100 = all killed)
Details: 10 µM
The panel holds about 83,000 compounds, 20% with a hit somewhere; the sample as a whole holds those more often.
attribute_measured: growth (%)

                                   compound  units_of_measure  reading
0         CC(C)C1CCCCC1O (stereo not drawn)                 %      113
1            O=c1[nH]n(-c2ccccc2)c(=O)cc1Cl                 %      116
2      O=P(O)(O)OCC(O)CO (stereo not drawn)                 %      107
3  CC(O)COc1ccc(-c2ccccc2)cc1 (stereo not drawn)                 %      108
4                       COC(=O)/C=C\C(=O)OC                 %      120
5  Cc1cc(/C=C/c2ccc3cc(N(C)C)ccc3[n+]2C)c(C)n1-c1ccccc1                 %    -39.2
6  CC(=O)Nc1ccc(NC(C)=O)c2c1C(=O)c1ccccc1C2=O                 %       96
7    COC(=O)C(O)c1ccccc1 (stereo not drawn)                 %      114

Data provenance is PubChem BioAssay (NCI).
